Target: GLP-1 receptor (human (printed as hGLP1R), UniProt P43220 24-463)
Test: cell-based or functional assay
Starred links: 1 amine or outer side, 2 acyl side, 3 side chain; linkers in the order of their positions; H or OH if unused. Non-standard residues stand in square brackets, D forms with d. Groups on a side chain read outwards from the residue. No end group written: not given here. *: point of attachment. C20 diacid = O=C(O)CCCCCCCCCCCCCCCCCCC(=O)*; C18 diacid = O=C(O)CCCCCCCCCCCCCCCCC(=O)*; γGlu = O=C(O)[C@H](CCC(=O)[*:2])N[*:1]; Aib = CC(C)(N)C(=O)O
For each record, write down the corresponding EC50 hGLP1R 100% hP (CreLuc).
Number in µM, nothing else.

Request: Recorded EC50 hGLP1R 100% hP (CreLuc) of Y[Aib]EGTFTSDYSI[Aib]LEKQAQ[Aib]AFVQWLIK([γGlu-γGlu-γGlu-γGlu-γGlu-γGlu-C18 diacid])GGPSEGASLRHYYNWLTRQRY-NH2 (also: TFA salt) [Compound 252] , please.
Response: 0.00259

Request: What about YXEGTFTSDYSIXLEKQAQXEFVEWLIKGGPSEGASLRHYYNWLTRQRY (Aib at 2, 13, 20; K28 side chain carries C18DA-gGlu-gGlu-gGlu-gGlu-gGlu-gGlu-eLys; C-terminal amide) [Compound 255] ?
Response: 0.00731

Request: Next entry: Y[Aib]EGTFTSDYSI[Aib]LEKQAQ[Aib]EFVQWLIK([γGlu-γGlu-γGlu-γGlu-C20 diacid])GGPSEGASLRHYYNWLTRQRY-NH2 (also: TFA salt) [Compound 194]
Response: 0.0142

Request: YXEGTFTSDYSIXLEKQAQRAFVEWLIKGGPSSGASLRHYYNWLTRQRY (Aib at 2, 13; D-Arg at 20; K28 side chain carries C20DA-gGlu-gGlu-gGlu-gGlu-gGlu-gGlu-eLys; C-terminal amide) [Compound 216] ?
Response: 0.0106

Request: What do we get for YXEGTFTSDYSIXLEKQAQXAFVQWLIKGGPEEGASLRHYYNWLTRQRY (Aib at 2, 13, 20; K28 side chain carries C18DA-E-E-E-E-E-E-eLys (SEQ ID NO: 643); C-terminal amide) [Compound 196] ?
Response: 0.0136
